Origin of the recorded values: ChEMBL document CHEMBL5108009

molecular target: 5-hydroxytryptamine receptor 2A (Rattus norvegicus, UniProt P14842); assay: Binding affinity to Wistar rat cortex membrane homogenate 5-HT2A receptor incubated for 90 mins by liquid scintillation counter analysis; assay type: cell membranes
Sequence (P14842 whole entry): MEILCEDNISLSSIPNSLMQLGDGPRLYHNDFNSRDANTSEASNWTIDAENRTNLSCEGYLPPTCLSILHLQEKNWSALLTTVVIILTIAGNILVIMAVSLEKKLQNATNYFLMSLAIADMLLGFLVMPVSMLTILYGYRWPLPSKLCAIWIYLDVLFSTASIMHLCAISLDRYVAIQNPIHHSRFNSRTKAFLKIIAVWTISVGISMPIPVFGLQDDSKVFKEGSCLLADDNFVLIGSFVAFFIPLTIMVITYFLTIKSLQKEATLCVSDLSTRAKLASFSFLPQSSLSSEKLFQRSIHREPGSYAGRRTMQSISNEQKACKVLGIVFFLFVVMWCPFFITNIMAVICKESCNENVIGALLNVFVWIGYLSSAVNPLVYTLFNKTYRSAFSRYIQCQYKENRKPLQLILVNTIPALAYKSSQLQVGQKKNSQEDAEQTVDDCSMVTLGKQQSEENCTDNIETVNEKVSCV
Measure: Ki (nM)

| Compound | Measure | Unit of measure | Value measured |
| --- | --- | --- | --- |
| [O-][S+](c1ccc(F)cc1)C1CCN(CCc2ccc(F)cc2F)CC1 (stereo unspecified) | Ki | nM | 198 |

====

molecular target: Sodium-dependent serotonin transporter (Rattus norvegicus, UniProt P31652)
Sequence (P31652 whole entry): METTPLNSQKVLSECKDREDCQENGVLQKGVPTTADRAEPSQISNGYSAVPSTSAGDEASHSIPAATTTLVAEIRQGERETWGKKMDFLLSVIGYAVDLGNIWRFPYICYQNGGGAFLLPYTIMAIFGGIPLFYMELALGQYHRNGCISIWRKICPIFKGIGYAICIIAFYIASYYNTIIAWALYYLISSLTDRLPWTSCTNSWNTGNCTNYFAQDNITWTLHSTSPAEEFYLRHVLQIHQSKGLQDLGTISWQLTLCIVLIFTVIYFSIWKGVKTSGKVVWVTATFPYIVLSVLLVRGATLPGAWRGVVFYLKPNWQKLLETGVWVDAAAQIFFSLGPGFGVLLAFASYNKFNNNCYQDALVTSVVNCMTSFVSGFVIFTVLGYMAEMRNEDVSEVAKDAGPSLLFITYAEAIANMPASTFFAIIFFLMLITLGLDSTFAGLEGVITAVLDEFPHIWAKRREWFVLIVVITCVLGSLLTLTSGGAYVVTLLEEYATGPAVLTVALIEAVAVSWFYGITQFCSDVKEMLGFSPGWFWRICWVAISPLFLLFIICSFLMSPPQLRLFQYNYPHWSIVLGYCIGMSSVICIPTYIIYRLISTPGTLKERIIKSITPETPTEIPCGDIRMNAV
pKi: −log10 of the molar value.
Measure: pKi

| Compound | Measure | Value measured |
| --- | --- | --- |
| COc1ccccc1N1CCN(CCn2cc(COCC(COc3ccc([Si]([18F])(C(C)(C)C)C(C)(C)C)cc3)OCc3cn(CCN4CCN(c5ccccc5OC)CC4)nn3)nn2)CC1 (stereo unspecified) | pKi | 8.01 |

====

biological target: 5-hydroxytryptamine receptor 2B (Homo sapiens, UniProt P41595); assay: Binding affinity to 5-HT2B (unknown origin) assessed as inhibition constant by liquid scintillation counter analysis
Sequence (P41595 whole entry): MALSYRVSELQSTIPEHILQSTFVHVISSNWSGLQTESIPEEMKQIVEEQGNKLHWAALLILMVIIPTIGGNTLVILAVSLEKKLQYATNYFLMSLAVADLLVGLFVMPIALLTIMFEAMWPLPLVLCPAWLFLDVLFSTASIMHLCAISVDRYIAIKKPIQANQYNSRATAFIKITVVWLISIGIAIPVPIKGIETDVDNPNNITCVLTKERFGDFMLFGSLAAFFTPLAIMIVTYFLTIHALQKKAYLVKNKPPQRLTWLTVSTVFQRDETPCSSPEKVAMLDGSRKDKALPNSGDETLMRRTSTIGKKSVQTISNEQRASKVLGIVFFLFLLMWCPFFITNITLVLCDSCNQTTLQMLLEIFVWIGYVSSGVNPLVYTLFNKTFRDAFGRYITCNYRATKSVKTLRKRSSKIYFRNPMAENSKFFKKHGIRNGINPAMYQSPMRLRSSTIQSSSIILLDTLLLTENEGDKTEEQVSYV
Measure: Ki (nM)

| Smiles text | Measure | Unit of measure | Value measured |
| --- | --- | --- | --- |
| COc1cc(CCNCc2ccccc2OC)c(OC)cc1I | Ki | nM | 2.3 |

====

biological target: 5-hydroxytryptamine receptor 2A (Homo sapiens); test: Binding affinity to human 5-HT2A assessed as inhibition constant
pKi: −log10 of the molar value.

| Smiles text | pKi |
| --- | --- |
| COc1cc(CCNCc2ccccc2O[11CH3])c(OC)cc1Br | 9.30 |

====

biological target: UniProtKB P14842

| Smiles text | Kd |
| --- | --- |
| CC1(NC(=O)c2ccc(N)cc2)CCN(CCCOc2ccc(F)cc2)CC1 | 0.11 nM |

====

// 5-hydroxytryptamine receptor 7 (Homo sapiens) pKi records
pKi: −log10 of the molar value.
Measure: pKi

| Smiles text | Measure | Value measured |
| --- | --- | --- |
| CCC(=O)Nc1ccc2[nH]cc(C3CCN(C)CC3)c2n1 | pKi | < 6.52 |
| CN1CCC(C(=O)c2cccc(NC(=O)c3c(F)cc(F)cc3F)n2)CC1 | pKi | < 6.23 |
| Cc1[nH]c2ccc(NC(=O)c3ccc(F)cc3)cc2c1CCN(C)C | pKi | < 6.59 |
| CC(=O)Nc1ccc2[nH]cc(C3CCN(C)CC3)c2n1 | pKi | < 6.62 |
| CN(C)[C@@H]1CCc2[nH]c3ccc(NC(=O)c4ccc(F)cc4)cc3c2C1 | pKi | < 6.30 |

====

target: Alpha-1A adrenergic receptor (Rattus norvegicus); experiment: Displacement of [3H]-WB4101 from rat forebrain homogenate alpha 1 adrenergic receptor; assay type: tissue-based
Sequence (P43140 whole entry): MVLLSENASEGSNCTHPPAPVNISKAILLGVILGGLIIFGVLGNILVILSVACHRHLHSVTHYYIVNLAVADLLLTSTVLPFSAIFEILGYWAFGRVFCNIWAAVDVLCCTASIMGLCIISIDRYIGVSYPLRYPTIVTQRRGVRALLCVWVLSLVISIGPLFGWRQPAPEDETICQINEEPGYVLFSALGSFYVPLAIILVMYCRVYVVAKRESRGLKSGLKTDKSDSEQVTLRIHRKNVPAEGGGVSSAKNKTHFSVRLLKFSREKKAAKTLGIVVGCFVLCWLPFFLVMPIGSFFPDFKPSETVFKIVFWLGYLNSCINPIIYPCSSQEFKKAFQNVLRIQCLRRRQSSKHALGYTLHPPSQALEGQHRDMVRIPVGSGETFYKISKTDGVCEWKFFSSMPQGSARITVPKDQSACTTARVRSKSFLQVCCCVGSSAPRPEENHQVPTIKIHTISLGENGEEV
pKi: −log10 of the molar value.
Measure: pKi

| Smiles text | Value measured |
| --- | --- |
| Cc1nc2n(c(=O)c1CCN1CCC(C(=O)c3ccc(F)cc3)CC1)CCS2 | 7.92 |

====

target: 5-hydroxytryptamine receptor 2A (Rattus norvegicus, UniProt P14842); experiment: Displacement of [3H]-Ketanserin from rat cortical membrane 5-HT2A receptor; assay type: cell membranes, Cortex

| Smiles text | Ki [nM] |
| --- | --- |
| Cc1ccc2c(c1)c(-c1ccc(F)cc1)c(C)n2C1CCN(C)CC1 | 5.3 |

====

biological target: D(4) dopamine receptor (Homo sapiens); test: Binding affinity to human D4 receptor expressed in CHO cells assessed as inhibition constant; type: cell-based
Sequence (P21917 whole entry): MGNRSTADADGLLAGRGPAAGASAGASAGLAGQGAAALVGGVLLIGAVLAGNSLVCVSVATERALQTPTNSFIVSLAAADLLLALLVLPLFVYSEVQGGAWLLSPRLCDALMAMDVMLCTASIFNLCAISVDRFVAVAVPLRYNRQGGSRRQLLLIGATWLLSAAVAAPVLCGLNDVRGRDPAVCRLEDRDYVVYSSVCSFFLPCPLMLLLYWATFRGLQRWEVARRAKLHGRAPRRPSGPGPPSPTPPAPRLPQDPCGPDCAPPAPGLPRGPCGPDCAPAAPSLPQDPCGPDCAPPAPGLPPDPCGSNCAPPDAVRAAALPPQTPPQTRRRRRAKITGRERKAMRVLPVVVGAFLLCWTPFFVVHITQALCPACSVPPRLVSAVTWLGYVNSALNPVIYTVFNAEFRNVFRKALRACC

| Smiles text | Ki |
| --- | --- |
| O=C(NCCN1CCN(c2cccc3c2OCCO3)CC1)c1ccc(F)cc1 | 4 nM |

====

target: 5-hydroxytryptamine receptor 2A (Homo sapiens, UniProt P28223); assay: Antagonist activity at human 5-HT2A receptor incubated for 3 hrs by radioligand binding assay; assay type: functional
Sequence (P28223 whole entry): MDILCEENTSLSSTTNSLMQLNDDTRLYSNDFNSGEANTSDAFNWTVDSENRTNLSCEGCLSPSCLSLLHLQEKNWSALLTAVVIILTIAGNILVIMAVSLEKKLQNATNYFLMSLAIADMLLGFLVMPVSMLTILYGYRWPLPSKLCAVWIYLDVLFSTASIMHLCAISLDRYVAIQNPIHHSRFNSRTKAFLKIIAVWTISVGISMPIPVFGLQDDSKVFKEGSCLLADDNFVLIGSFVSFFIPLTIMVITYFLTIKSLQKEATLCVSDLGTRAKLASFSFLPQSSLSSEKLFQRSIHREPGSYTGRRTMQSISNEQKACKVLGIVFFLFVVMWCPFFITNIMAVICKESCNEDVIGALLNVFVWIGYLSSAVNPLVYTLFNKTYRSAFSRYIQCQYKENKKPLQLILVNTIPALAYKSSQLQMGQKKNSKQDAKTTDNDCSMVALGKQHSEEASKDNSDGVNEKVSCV

| Smiles text | Ki, nM |
| --- | --- |
| COc1ccc(C(=O)N(Cc2ccc(C)cc2)C2CCN(C)CC2)cc1 | 2.5 |

====

assay: Drug uptake in pig brain cortex assessed as non-displaceable binding potential; type: ADME, tissue-based, Sus scrofa; settings: in vivo

| Smiles text | Drug uptake |
| --- | --- |
| COc1cc(CCNCc2ccccc2F)c(O[11CH3])cc1I | 0.17 |
| COc1cc(CCNCc2ccccc2O[11CH3])c(OC)cc1Br | 0.62 |
| COc1cc(CCN)c(O[11CH3])cc1I | 0.17 |
| COc1cc(C(F)(F)F)c(OC)cc1CCNCc1ccccc1O[11CH3] | 0.82 |

====

experiment: Lipophilicity, logD of the compound at pH 7.4; format: physicochemical; conditions: buffer
Catalogue of logD values

| Compound | logD |
| --- | --- |
| NC(=O)c1ccc(F)c2c1CC(N(C1CCC1)C1CCC1)CO2 (configuration not stated) | 2.5 |
| CC1(NC(=O)c2ccc(N)cc2)CCN(CCCOc2ccc([18F])cc2)CC1 | 2.53 |

====

assay: Drug metabolism in Rhesus monkey plasma assessed as unmetabolized compound after 3 hrs by TLC analysis; format: ADME, cell-free, Macaca mulatta; conditions: read-out: Stability
Measure: remaining at 3 h (%)

| Molecule | Value measured |
| --- | --- |
| COc1ccccc1N1CCN(CCN(C(=O)C2CCC(C[18F])CC2)c2ccccn2)CC1 (stereo unspecified) | 30 |

====

Recorded pKi values for a group of compounds are listed next.
Target: Alpha-1A adrenergic receptor (Homo sapiens)
Sequence (P35348 whole entry): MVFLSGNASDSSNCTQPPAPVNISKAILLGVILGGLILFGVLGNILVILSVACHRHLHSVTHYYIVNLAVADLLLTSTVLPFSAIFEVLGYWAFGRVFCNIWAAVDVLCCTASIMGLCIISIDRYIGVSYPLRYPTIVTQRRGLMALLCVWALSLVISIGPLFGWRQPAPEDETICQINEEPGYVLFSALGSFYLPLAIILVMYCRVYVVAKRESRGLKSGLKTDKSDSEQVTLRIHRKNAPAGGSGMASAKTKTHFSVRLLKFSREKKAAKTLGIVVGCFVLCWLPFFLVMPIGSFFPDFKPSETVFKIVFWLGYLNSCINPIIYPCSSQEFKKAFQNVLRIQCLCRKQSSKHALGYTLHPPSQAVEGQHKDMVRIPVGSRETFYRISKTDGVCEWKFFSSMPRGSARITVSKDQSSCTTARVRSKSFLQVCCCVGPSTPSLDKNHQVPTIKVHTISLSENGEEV
Assay: Binding affinity to alpha 1A adrenergic receptor (unknown origin) assessed as inhibition constant
pKi: −log10 of the molar value.

| Smiles text | pKi |
| --- | --- |
| O=C(C1CCCCC1)N(CCN1CCN(c2ccccc2O)CC1)c1ccccn1 | 6.44 |
| COc1cccc(N2CCN(CCCCn3ncc(=O)n(C)c3=O)CC2)c1 | 8.17 |
| COc1ccccc1N1CCN(CCCN/C(=N\C#N)c2ccccn2)CC1 | 7.70 |
| COc1ccccc1N1CCN(CCNC(=O)c2ccncc2)CC1 | 7.70 |
| COc1ccccc1N1CCN(CCNC(=O)c2ccccn2)CC1 | 7.70 |
| COc1ccccc1N1CCN(CCN(C(=O)c2ccc(F)c(C)c2)c2ccccn2)CC1 | 7.89 |

====

target: 5-hydroxytryptamine receptor 2A (Rattus norvegicus); test: Antagonist activity at rat 5-HT2A receptor; format: functional
pKi: −log10 of the molar value.

| Smiles text | pKi |
| --- | --- |
| COc1cccc(CCc2ccccc2OCC[C@@H]2C[C@@H](O)CN2C)c1 | 9.10 |

====

Target: UniProt P19327
Sequence (P19327 whole entry): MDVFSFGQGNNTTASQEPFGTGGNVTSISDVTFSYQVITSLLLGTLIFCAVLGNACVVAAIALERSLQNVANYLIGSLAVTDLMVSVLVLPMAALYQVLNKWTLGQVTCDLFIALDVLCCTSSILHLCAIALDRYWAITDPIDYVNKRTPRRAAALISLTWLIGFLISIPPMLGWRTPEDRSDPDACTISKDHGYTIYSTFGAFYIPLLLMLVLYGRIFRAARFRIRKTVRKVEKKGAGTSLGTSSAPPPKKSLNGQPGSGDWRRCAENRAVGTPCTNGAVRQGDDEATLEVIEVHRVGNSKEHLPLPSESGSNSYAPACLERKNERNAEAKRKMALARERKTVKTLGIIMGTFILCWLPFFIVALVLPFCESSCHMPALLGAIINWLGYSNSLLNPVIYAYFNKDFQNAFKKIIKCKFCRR
Test: Displacement of [3H]-8-OH-DPAT from rat hippocampal membrane 5HT1A receptor by CEREP assay
Format: cell membranes, Hippocampus

| Smiles text | IC50 [nM] |
| --- | --- |
| COc1ccccc1N1CCN(CCCCn2ccnc2SC)CC1 | 0.58 |
| COc1ccccc1N1CCN(CCCCN(C)C(=O)c2cnc(SC)n2C)CC1 | 0.86 |

====

target: 5-hydroxytryptamine receptor 2B (Homo sapiens, UniProt P41595); test: Binding affinity to 5-HT2B receptor (unknown origin) assessed as inhibition constant
pKi: −log10 of the molar value.
Measure: pKi

| Smiles text | Measure | Value measured |
| --- | --- | --- |
| COc1ccccc1N1CCN(CC[C@@H](C(=O)N2CCCCCC2)c2ccccc2)CC1 | pKi | 8.14 |
